Measured residual activity values are reported for all entries that follow.
- Assayed system: Serine/threonine-protein kinase MRCK alpha (Homo sapiens)
- Condition set: at 1 µM
Quantity: residual activity

O=C1Cc2c([nH]c3ccc([N+](=O)[O-])cc23)-c2ccccc2N1 :: 60%
Nc1ncnc2c1c(-c1ccc(Oc3ccccc3)cc1)cn2C1CCCC1 :: 107%
COc1cc2ncnc(Nc3cccc(Cl)c3)c2cc1OC :: 107%
O=C1NC(=O)c2c1c1c3ccccc3[nH]c1n1cncc21 :: 99%
CCCC(=O)Oc1ccc2[nH]c(C(=O)c3cc4ccccc4[nH]3)cc2c1 :: 102%
O=C(CCCc1ccc(-c2ccccc2F)cc1)Nc1ccc(O)cc1 :: 107%
CC(C)[C@H](CO)Nc1nc(Nc2cc(N)cc(Cl)c2)c2ncn(C(C)C)c2n1 :: 122%
NCCNc1ncc(C(N)=O)c(Nc2cccc(C(F)(F)F)c2)n1 :: 104%
Nc1ncnc2[nH]nc(Nc3ccc(F)cc3)c12 :: 117%
c1ccc(-c2cnc(Nc3ccc(OCCN4CCCC4)cc3)s2)cc1 :: 107%
O=c1cc(N2CCOCC2)oc2c1ccc1ccccc12 :: 105%
O=c1cc(N2CCNCC2)oc2c(-c3ccccc3)cccc12 :: 86%
O=C(c1ccccc1)c1ccc(N2CCOCC2)cc1O :: 100%
O=C1Nc2ccc(Cl)cc2/C1=C/c1cc(Cl)c(O)c(Cl)c1 :: 99%
O=c1c(-c2ccc(F)cc2)c(-c2ccncc2)[nH]n1-c1ccc(Cl)cc1 :: 119%
CC(C)c1nn(-c2c(Cl)cccc2Cl)c2nc(Cc3ccc(OCCO)cc3)[nH]c(=O)c12 :: 106%
COc1ccc2c(c1)c(C1=C(c3c[nH]c4ccccc34)C(=O)NC1=O)cn2CCCN(C)C :: 74%
COc1cc2c(cc1OC)-c1n[nH]c(Nc3cccc(F)c3)c1C2 :: 116%

###

- Assayed system: Tyrosine-protein kinase JAK2 (Homo sapiens) (UniProt O60674)
- Sequence (O60674 whole entry): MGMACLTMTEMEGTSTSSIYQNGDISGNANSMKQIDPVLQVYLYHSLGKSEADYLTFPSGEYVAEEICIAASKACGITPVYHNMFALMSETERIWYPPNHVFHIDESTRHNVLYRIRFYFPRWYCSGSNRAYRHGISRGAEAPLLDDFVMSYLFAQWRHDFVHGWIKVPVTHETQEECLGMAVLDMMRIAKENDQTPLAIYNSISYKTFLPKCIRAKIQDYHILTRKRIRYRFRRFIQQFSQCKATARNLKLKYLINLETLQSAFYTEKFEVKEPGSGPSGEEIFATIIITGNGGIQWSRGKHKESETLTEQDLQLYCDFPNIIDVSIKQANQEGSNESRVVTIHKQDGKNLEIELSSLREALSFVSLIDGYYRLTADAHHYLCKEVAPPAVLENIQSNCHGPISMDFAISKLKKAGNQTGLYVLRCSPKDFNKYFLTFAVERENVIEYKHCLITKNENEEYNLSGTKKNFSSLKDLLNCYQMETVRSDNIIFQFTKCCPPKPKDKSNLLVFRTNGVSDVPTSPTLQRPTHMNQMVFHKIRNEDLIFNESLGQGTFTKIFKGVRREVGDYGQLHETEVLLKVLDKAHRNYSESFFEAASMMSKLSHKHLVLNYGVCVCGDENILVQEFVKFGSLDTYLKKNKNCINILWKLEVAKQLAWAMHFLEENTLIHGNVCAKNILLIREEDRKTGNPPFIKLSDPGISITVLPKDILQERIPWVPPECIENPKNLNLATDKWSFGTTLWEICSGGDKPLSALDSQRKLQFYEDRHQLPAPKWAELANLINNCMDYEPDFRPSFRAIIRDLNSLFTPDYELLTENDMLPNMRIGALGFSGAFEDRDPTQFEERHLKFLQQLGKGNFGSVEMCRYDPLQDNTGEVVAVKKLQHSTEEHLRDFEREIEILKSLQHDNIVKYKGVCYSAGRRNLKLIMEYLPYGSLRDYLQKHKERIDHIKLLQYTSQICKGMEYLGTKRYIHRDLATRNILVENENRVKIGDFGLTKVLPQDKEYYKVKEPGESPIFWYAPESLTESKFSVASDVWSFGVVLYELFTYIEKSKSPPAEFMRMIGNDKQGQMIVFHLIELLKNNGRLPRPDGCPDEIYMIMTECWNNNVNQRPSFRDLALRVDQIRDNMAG
- Condition set: at 1 µM
Quantity: residual activity

Nc1ncnc2[nH]nc(Nc3ccc(F)cc3)c12 :: 103%
COc1ccc2c(c1)c(C1=C(c3c[nH]c4ccccc34)C(=O)NC1=O)cn2CCCN(C)C :: 114%
c1ccc(-c2cnc(Nc3ccc(OCCN4CCCC4)cc3)s2)cc1 :: 111%
Cn1sc(=O)n(Cc2ccccc2)c1=O :: 91%
Nc1ncnc2c1c(-c1ccc(Oc3ccccc3)cc1)cn2C1CCCC1 :: 96%
CCCC(=O)Oc1ccc2[nH]c(C(=O)c3cc4ccccc4[nH]3)cc2c1 :: 103%

###

- Assayed system: Mitogen-activated protein kinase kinase kinase kinase 2 (Homo sapiens) (UniProt Q12851)
- Sequence (Q12851 whole entry): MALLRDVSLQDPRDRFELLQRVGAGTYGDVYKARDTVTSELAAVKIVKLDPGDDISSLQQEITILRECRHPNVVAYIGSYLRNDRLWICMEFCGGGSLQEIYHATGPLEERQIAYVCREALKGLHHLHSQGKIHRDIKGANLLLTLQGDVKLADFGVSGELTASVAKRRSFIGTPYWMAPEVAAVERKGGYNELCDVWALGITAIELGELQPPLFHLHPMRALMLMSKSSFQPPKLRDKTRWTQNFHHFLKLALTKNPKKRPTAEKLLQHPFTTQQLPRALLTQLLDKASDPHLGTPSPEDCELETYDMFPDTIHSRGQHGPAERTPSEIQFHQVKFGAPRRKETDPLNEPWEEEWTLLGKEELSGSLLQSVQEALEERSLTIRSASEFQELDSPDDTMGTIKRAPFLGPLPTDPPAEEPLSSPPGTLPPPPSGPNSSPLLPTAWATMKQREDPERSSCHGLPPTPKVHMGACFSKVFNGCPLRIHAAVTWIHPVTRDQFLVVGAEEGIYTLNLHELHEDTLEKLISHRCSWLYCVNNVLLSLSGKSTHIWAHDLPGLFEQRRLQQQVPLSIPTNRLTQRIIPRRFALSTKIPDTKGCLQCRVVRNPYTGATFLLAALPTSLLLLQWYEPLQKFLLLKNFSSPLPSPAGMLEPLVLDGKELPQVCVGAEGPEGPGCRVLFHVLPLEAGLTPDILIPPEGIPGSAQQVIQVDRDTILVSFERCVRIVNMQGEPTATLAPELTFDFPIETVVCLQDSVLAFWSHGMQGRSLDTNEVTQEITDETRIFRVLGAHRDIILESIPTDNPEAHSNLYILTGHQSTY
- Condition set: at 1 µM
Quantity: residual activity (%)

O=C(NC(NC(=S)Nc1ccc(F)c([N+](=O)[O-])c1)C(Cl)(Cl)Cl)C(c1ccccc1)c1ccccc1 (stereo unspecified) :: 88
N#C/C(=C1/Nc2ccccc2S1)c1ccnc(NCCc2cccnc2)n1 :: 79
O=C1NC(=O)C(c2c[nH]c3ccccc23)=C1c1c[nH]c2ccccc12 :: 80
CC(C)c1nn(-c2c(Cl)cccc2Cl)c2nc(Cc3ccc(OCCO)cc3)[nH]c(=O)c12 :: 99
COc1cc2nccc(Oc3ccc(NC(=O)Nc4cc(C)on4)c(Cl)c3)c2cc1OC :: 47
Nc1ncnc2c1c(-c1ccc(Oc3ccccc3)cc1)cn2C1CCCC1 :: 87
O=C1Nc2ccc(Cl)cc2/C1=C/c1cc(Cl)c(O)c(Cl)c1 :: 46
COc1ccc2c(c1)c(C1=C(c3c[nH]c4ccccc34)C(=O)NC1=O)cn2CCCN(C)C :: 75
COc1ccc(-c2cnc3c(-c4ccsc4)cnn3c2)cc1 :: 96
COc1ccc(Cl)cc1NC(=O)Nc1cc(C)nc2ccccc12 :: 93
O=C1NC(=O)C(c2cn(CCCn3ccnc3)c3ccccc23)=C1Nc1ccccc1 :: 54
Nc1nccc(-c2c(-c3ccc(F)cc3)ncn2C2CCNCC2)n1 :: 82
Cc1cc(C)c(/C=C2\C(=O)Nc3ccccc32)[nH]1 :: 57
O=C(CCCc1ccc(-c2ccccc2F)cc1)Nc1ccc(O)cc1 :: 96
O=c1cc(N2CCOCC2)oc2c1ccc1ccccc12 :: 91
O=C(O)/C=C/c1cc(Br)c(Br)c(Br)c1Br :: 100
O=c1cc(N2CCNCC2)oc2c(-c3ccccc3)cccc12 :: 90
Cn1sc(=O)n(Cc2ccccc2)c1=O :: 88
CSc1nc(-c2ccc(F)cc2)c(-c2ccnc(NC(C)c3ccccc3)c2)[nH]1 (stereo unspecified) :: 75
CCOC(=O)c1c(C)[nH]c(/C=C2\C(=O)Nc3ccccc32)c1C :: 89
O=C1NC(=O)C(c2cn(CCCO)c3ncccc23)=C1c1cnccn1 :: 86
O=C(c1cc2cc(O)ccc2[nH]1)c1cc2cc(O)ccc2[nH]1 :: 24
O=C1Cc2c([nH]c3ccc(Br)cc23)-c2ccccc2N1 :: 6
Cn1c2ccccc2c2c3c(c4c5ccccc5n(CCC#N)c4c21)CNC3=O :: 2
Nc1ncnc2[nH]nc(Nc3ccc(F)cc3)c12 :: 98
O=C1NC(=O)c2c1c1c3ccccc3[nH]c1n1cncc21 :: 58

###

- Assayed system: Misshapen-like kinase 1 (Homo sapiens)
- Condition set: at 10 µM
Quantity: residual activity (%)

CSc1nc(-c2ccc(F)cc2)c(-c2ccnc(NC(C)c3ccccc3)c2)[nH]1 (stereo not given) :: 59
N#C/C(=C1/Nc2ccccc2S1)c1ccnc(NCCc2cccnc2)n1 :: 72
CCCCc1c(-c2ccc(O)cc2)[nH]c2nccnc12 :: 86
Nc1ncnc2c1c(-c1ccc(Oc3ccccc3)cc1)cn2C1CCCC1 :: 82
O=C(O)/C=C/c1cc(Br)c(Br)c(Br)c1Br :: 87

###

- Assayed system: Maternal embryonic leucine zipper kinase (Homo sapiens) (UniProt Q14680)
- Sequence (Q14680 whole entry, looked up): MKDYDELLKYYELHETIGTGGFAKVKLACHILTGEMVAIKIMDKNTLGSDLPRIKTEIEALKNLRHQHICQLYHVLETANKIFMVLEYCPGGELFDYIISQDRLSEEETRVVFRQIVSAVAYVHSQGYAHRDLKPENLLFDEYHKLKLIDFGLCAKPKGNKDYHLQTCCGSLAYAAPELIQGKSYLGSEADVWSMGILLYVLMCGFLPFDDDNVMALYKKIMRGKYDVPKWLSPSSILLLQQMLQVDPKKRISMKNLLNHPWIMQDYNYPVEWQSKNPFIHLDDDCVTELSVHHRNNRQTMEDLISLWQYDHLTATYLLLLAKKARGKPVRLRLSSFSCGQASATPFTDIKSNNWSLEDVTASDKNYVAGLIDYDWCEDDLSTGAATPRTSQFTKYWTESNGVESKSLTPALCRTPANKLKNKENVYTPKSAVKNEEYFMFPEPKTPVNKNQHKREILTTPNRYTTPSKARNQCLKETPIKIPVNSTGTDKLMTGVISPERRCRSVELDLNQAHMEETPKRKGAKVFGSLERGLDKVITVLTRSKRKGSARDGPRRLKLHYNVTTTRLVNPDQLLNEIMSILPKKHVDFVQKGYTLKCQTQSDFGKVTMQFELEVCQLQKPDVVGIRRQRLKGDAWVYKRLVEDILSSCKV
- Condition set: at 1 µM
Known residual activity of a selection of compounds
Quantity: residual activity (%)

Nc1n[nH]c2nc3ccccc3nc12 :: 97
COc1ccc2c(c1)c(C1=C(c3c[nH]c4ccccc34)C(=O)NC1=O)cn2CCCN(C)C :: 54
O=c1cc(N2CCNCC2)oc2c(-c3ccccc3)cccc12 :: 80
O=C1NC(=O)c2c1c1c3ccccc3[nH]c1n1cncc21 :: 27
O=C1Cc2c([nH]c3ccc([N+](=O)[O-])cc23)-c2ccccc2N1 :: 81
O=C(c1cc2cc(O)ccc2[nH]1)c1cc2cc(O)ccc2[nH]1 :: 27
NC(=O)Nc1sc(-c2ccc(F)cc2)cc1C(N)=O :: 72
CCCCc1c(-c2ccc(O)cc2)[nH]c2nccnc12 :: 76
O=S(=O)(c1cccc2cnccc12)N1CCCNCC1 :: 75
O=C1Nc2ccc(Cl)cc2/C1=C/c1cc(Cl)c(O)c(Cl)c1 :: 60
Nc1nccc(-c2c(-c3ccc(F)cc3)ncn2C2CCNCC2)n1 :: 71

###

Here, each record is paired with measured residual activity data.
- Assayed system: Aurora kinase A (Homo sapiens)
- Condition set: at 10 µM
Quantity: residual activity (%)

CC(C)c1nn(-c2c(Cl)cccc2Cl)c2nc(Cc3ccc(OCCO)cc3)[nH]c(=O)c12 :: 82
N#C/C(=C1/Nc2ccccc2S1)c1ccnc(NCCc2cccnc2)n1 :: 48
O=C(NC(NC(=S)Nc1ccc(F)c([N+](=O)[O-])c1)C(Cl)(Cl)Cl)C(c1ccccc1)c1ccccc1 (stereo not given) :: 69
O=C1NC(=O)C(c2cn(CCCn3ccnc3)c3ccccc23)=C1Nc1ccccc1 :: 72
COc1cc2ncnc(Nc3cccc(Cl)c3)c2cc1OC :: 49

###

- Assayed system: Aurora kinase A (Homo sapiens) (UniProt O14965)
- Sequence (O14965 whole entry): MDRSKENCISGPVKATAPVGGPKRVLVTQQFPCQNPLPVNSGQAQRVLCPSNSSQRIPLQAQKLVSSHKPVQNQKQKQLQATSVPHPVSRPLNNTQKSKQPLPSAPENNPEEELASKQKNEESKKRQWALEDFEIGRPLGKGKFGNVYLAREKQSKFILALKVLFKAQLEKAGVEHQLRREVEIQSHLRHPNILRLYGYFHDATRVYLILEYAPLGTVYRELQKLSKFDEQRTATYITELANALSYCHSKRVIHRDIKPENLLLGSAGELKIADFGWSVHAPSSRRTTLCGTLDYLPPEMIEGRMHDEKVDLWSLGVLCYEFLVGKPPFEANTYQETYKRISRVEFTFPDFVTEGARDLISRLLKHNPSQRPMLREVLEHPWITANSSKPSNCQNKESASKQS
- Condition set: at 10 µM
Quantity: residual activity

COc1cc2nccc(Oc3ccc(NC(=O)Nc4cc(C)on4)c(Cl)c3)c2cc1OC :: 7%
O=C1Cc2c([nH]c3ccc([N+](=O)[O-])cc23)-c2ccccc2N1 :: 105%
O=c1cc(N2CCNCC2)oc2c(-c3ccccc3)cccc12 :: 80%
Cn1sc(=O)n(Cc2ccccc2)c1=O :: 91%
Nc1ncnc2c1cnn2-c1ccccc1 :: 95%

###

- Assayed system: cGMP-dependent protein kinase 1 (Homo sapiens) (UniProt Q13976)
- Sequence (Q13976 whole entry): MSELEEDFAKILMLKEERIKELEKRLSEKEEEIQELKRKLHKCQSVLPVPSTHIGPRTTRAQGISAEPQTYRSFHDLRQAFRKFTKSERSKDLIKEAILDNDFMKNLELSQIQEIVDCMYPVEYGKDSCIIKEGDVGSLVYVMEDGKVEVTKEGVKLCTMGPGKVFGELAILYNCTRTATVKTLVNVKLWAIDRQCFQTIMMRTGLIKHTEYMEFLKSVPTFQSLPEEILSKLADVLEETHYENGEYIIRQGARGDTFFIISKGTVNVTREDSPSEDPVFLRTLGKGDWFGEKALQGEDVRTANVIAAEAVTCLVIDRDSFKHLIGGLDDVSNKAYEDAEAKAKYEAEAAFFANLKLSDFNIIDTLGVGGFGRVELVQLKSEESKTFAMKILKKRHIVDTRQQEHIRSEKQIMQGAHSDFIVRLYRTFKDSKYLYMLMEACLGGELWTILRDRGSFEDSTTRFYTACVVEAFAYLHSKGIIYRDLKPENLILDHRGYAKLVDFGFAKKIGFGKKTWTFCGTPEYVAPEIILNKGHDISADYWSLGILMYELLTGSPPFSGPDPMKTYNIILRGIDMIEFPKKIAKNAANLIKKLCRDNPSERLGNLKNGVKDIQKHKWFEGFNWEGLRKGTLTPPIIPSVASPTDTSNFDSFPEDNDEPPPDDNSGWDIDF
- Condition set: at 1 µM
Overview of recorded residual activity for various molecules
Quantity: residual activity (%)

O=C1C(Cl)=C(N2C(=O)CCC2=O)C(=O)c2ccccc21 :: 101
CC(C)(C)n1nc(Cc2cccc3ccccc23)c2c(N)ncnc21 :: 86
O=C1NC(=O)C(c2c[nH]c3ccccc23)=C1c1c[nH]c2ccccc12 :: 83
NC(=O)Nc1sc(-c2ccc(F)cc2)cc1C(N)=O :: 84
Nc1ncnc2[nH]nc(Nc3ccc(F)cc3)c12 :: 95
O=c1cc(N2CCOCC2)oc2c(-c3ccccc3)cccc12 :: 80
CCCC(=O)Oc1ccc2[nH]c(C(=O)c3cc4ccccc4[nH]3)cc2c1 :: 79
COc1ccc(Cl)cc1NC(=O)Nc1cc(C)nc2ccccc12 :: 79
